biological target: T1, human transferrin receptor (TfR) ectodomain (ECD) (human, UniProt P02786 121-760, biotinylated where captured on streptavidin); test: ELISA, Fc-Fab fusion (dimer format) titrated on plate-coated human TfR; OD650
T1 construct: also called human TfR; huTfR
T1 sequence (P02786 121-760): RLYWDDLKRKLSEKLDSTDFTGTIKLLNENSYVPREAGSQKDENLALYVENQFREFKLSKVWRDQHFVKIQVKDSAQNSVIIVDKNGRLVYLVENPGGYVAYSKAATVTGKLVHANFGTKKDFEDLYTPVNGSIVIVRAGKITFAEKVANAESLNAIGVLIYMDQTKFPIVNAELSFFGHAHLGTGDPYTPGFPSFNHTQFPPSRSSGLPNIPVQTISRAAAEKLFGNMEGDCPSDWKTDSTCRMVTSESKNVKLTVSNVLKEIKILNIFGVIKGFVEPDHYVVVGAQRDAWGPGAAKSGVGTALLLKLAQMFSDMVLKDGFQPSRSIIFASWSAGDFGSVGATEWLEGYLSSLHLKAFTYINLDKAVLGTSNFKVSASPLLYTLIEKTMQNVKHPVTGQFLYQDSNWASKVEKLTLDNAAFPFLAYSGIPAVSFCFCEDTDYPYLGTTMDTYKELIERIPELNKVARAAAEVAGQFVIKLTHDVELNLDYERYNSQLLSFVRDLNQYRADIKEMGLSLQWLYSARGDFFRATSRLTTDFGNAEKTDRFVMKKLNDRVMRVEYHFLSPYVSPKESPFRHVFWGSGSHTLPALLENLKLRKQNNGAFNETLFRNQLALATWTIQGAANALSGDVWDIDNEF
measured_parameter: binding result

Query: // fetch binding result given entry Clone CH3B.7 (designed binder) PCPAPELLGGPSVFLFPPKPKDTLMISRTPEVTCVVVDVSHEDPEVKFNWYVDGVEVHNAKTKPREEQYNSTYRVVSVLTVLHQDWLNGKEYKCKVSNKALPAPIEKTISKAKGQPRFDIVTTLPPSRDELTKNQVSLTCLVKGFYPSDIAVEWESNGQPENNYKTTPPVLDSDGSFFLYSKLTVDKSRWQQGNVFSCSVMHEALHNHYGFHDLSLSPGK
Response: binds

Query: // fetch binding result given entry Clone CH3B.3 (designed binder) PCPAPELLGGPSVFLFPPKPKDTLMISRTPEVTCVVVDVSHEDPEVKFNWYVDGVEVHNAKTKPREEQYNSTYRVVSVLTVLHQDWLNGKEYKCKVSNKALPAPIEKTISKAKGQPRFEYVTTLPPSRDELTKNQVSLTCLVKGFYPSDIAVEWESNGQPENNYKTTPPVLDSDGSFFLYSKLTVDKSRWQQGNVFSCSVMHEALHNHYGFHDLSLSPGK
Response: binds

Query: // fetch binding result given entry Clone CH3B.9 (designed binder) PCPAPELLGGPSVFLFPPKPKDTLMISRTPEVTCVVVDVSHEDPEVKFNWYVDGVEVHNAKTKPREEQYNSTYRVVSVLTVLHQDWLNGKEYKCKVSNKALPAPIEKTISKAKGQPRFGMVTTLPPSRDELTKNQVSLTCLVKGFYPSDIAVEWESNGQPENNYKTTPPVLDSDGSFFLYSKLTVDKSRWQQGNVFSCSVMHEALHNHYGFHDLSLSPGK
Response: binds

Origin of the recorded values: patent US20230235072A1
